- MEASUREMENT TARGET: Metabotropic glutamate receptor 5 (Homo sapiens, UniProt P41594)
- Sequence (P41594 whole entry): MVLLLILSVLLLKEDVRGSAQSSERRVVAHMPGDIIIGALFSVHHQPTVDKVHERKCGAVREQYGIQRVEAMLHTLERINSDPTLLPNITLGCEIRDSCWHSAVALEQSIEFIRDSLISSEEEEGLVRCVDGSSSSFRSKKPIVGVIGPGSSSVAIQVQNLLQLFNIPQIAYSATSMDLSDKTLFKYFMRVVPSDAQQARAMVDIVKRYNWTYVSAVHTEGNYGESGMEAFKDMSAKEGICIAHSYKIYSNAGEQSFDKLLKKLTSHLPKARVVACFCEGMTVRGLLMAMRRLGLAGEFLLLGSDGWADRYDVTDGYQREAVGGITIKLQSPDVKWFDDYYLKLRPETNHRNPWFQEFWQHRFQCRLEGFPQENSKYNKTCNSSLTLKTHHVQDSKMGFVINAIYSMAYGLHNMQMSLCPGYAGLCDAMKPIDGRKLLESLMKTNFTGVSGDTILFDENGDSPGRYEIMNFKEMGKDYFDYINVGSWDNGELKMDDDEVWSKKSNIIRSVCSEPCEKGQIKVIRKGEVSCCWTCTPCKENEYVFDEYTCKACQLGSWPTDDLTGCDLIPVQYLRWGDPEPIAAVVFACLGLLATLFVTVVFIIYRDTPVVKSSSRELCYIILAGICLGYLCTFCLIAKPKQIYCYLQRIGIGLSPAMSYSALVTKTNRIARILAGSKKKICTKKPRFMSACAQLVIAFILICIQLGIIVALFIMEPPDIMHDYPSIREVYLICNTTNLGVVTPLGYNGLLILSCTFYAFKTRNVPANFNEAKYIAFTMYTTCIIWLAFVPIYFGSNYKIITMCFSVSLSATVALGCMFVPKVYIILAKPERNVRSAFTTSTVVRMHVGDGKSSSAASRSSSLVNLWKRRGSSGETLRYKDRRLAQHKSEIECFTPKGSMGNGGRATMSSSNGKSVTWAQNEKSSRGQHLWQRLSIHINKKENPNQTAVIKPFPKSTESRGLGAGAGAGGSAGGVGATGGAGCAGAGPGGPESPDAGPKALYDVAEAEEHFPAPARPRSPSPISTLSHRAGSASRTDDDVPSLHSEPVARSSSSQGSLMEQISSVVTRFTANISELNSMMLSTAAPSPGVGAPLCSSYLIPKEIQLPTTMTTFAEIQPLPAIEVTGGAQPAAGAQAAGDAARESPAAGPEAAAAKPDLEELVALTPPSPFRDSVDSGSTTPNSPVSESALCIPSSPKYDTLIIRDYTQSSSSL
- EXPERIMENT SUMMARY: Positive allosteric modulation of human mGlu5 expressed in HEK293 cells assessed as calcium mobilization
- Assay type: functional, cell-based
- EXPERIMENTAL SETUP: read-out: pEC50 (converted)
MEASURED ATTRIBUTE: EC50

[Q] I am curious: what EC50 value has been reported for CC(=O)N1CCCn2nc(CS(=O)(=O)c3ccccc3)cc21 ?
[A] > 31.6 µM

[Q] // query: CC(=O)N1CCCn2nc(COc3cccnc3)cc21
[A] > 31.6 µM

[Q] // query: O=C(C1CC1)N1CCCn2nc(COc3ccccc3)cc21
[A] 0.525 µM

[Q] // query: CC(=O)N1CCCn2nc(COc3cccc(F)c3)cc21
[A] 0.24 µM

[Q] // query: CC(=O)N1CCCn2nc(CN(C)C3C4CC3C4)cc21 (stereo not given)
[A] > 31.6 µM

[Q] // query: CC(=O)N1CCCn2nc(COc3ccncc3)cc21
[A] > 31.6 µM

[Q] // query: O=C(Cc1ccccc1)N1CCCn2nc(COc3ccccc3)cc21
[A] 0.372 µM

[Q] // query: CC(=O)N1CCCn2nc(CN3CCc4ccccc43)cc21
[A] > 31.6 µM

[Q] // query: O=C(c1ccco1)N1CCCn2nc(COc3ccccc3)cc21
[A] > 31.6 µM

[Q] // query: CC(=O)N1CCCn2nc(C[S+]([O-])c3ccccc3)cc21 (stereo not given)
[A] > 31.6 µM

----------
- Tested on: Plasma
- EXPERIMENT SUMMARY: Fraction unbound in rat plasma
- Type: ADME, cell-free
MEASURED ATTRIBUTE: Fu
Write no unit; give the number alone.

[Q] I am curious: what Fu value has been reported for CC(=O)N1CCCn2nc(CN3CCOc4ccccc43)cc21 ?
[A] 0.43

[Q] // query: CC(=O)N1CCCn2nc(COc3ccccc3)cc21
[A] 0.37

[Q] // query: CC(=O)N1CCCn2nc(CN(C)c3ccccc3)cc21
[A] 0.35

[Q] // query: CC(=O)N1CCCn2nc(COc3ccccc3F)cc21
[A] 0.24

----------
Give measured clearance for each item. Keep answers brief.
- EXPERIMENT SUMMARY: Plasma clearance in Sprague-Dawley rat at 0.2 mg/kg, iv
- Format: ADME, organism-based
The answer is to be given in mL/min/kg; state only the numeric part.

[Q] I am curious: what clearance value has been reported for CC(=O)N1CCCn2nc(COc3ccccc3)cc21 ?
[A] 118

[Q] // query: CC(=O)N1CCCn2nc(COc3ccccc3F)cc21
[A] 103

----------
- MEASUREMENT TARGET: Metabotropic glutamate receptor 6 (Homo sapiens, UniProt O15303)
- Sequence (O15303 whole entry): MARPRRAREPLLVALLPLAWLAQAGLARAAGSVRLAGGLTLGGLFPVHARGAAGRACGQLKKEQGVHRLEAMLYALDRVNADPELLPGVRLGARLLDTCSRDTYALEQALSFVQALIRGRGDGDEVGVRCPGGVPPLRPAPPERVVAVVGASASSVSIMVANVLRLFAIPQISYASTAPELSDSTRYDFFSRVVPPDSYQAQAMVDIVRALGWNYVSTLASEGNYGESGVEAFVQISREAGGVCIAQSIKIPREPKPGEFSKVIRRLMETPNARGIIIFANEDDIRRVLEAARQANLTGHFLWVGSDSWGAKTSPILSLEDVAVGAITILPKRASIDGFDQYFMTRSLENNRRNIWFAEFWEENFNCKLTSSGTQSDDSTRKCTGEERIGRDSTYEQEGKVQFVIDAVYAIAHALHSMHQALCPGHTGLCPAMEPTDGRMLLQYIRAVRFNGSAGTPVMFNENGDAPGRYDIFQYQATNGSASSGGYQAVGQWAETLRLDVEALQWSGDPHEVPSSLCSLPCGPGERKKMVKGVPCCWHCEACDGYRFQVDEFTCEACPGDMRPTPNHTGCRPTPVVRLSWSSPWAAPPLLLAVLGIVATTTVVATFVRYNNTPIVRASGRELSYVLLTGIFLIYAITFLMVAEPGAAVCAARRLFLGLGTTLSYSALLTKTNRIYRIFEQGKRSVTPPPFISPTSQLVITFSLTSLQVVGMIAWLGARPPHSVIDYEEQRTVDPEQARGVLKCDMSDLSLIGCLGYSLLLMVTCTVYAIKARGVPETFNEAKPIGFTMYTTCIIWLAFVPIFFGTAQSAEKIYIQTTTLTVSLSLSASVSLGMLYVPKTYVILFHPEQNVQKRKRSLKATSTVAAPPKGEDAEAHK
- EXPERIMENT SUMMARY: Positive allosteric modulation of mGlu6 receptor (unknown origin) relative to control
pEC50: −log10 of the molar value.
MEASURED ATTRIBUTE: pEC50

[Q] Requested read-out pEC50, target or system Metabotropic glutamate receptor 6 (Homo sapiens, UniProt O15303), entry CC(=O)N1CCCn2nc(COc3ccccc3)cc21
[A] < 5.00

----------
- EXPERIMENT SUMMARY: Cmax in dog at 1 mg/kg, iv and 5 mg/kg, po
- Assay type: ADME, organism-based, Canis lupus familiaris
- EXPERIMENTAL SETUP: in vivo
MEASURED ATTRIBUTE: Cmax

[Q] I am curious: what Cmax value has been reported for CC(=O)N1CCCn2nc(COc3ccccc3)cc21 ?
[A] < 100 nM

Taken from ChEMBL document CHEMBL3632544.
